Target: T1, Formyl peptide receptor 1 (human, UniProt P21462 1-350)
T1 chain: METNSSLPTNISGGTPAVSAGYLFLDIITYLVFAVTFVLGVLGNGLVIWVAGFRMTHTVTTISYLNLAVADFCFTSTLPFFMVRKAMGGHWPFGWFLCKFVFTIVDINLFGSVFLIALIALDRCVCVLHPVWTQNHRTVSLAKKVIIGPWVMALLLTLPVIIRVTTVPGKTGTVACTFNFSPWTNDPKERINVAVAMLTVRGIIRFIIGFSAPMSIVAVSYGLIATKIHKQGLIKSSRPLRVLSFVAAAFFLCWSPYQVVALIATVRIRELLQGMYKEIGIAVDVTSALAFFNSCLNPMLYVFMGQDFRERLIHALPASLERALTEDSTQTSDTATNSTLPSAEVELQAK
Ends that are not written are not given here.
quantity measured: pKd
Scale: negative log10 of molar concentration, which is what pKd denotes.

Please look up its pKd: EQYIKWPWYVWL (also: fluorescently labeled) [fluorescently labeled SARS-CoV MPR peptide CV3]
8.14

# next binder below
Entry under review: ETYIKWPWWVWL (also: fluorescently labeled) [fluorescently labeled HCoV-229E MPR peptide CV1] . Reported pKd?
8.08
